# Test system: LOX IMVI
# TEST NAME: NCI tumour cell line growth inhibition, 48 h
Calls of active or inactive are those of the source. Rule as the data show it: active = GI50 up to about 1.1 µM and inactive = higher.
Possible outcomes: active, inactive

- COMPOUND: "COC(=O)/C=C(\\C(=O)OC)C1C(=O)Oc2c(C)c(=O)c3ccccc3n21 (stereo not given)"
  DISCRETE LABEL: "inactive"
- COMPOUND: "CN(C)C(=O)c1nnsc1NN=O"
  DISCRETE LABEL: "inactive"
- COMPOUND: "Cc1ccc(C2=Nc3c(N)nc(N)nc3NC(c3ccccc3)C2)cc1 (stereo not given)"
  DISCRETE LABEL: "inactive"
- COMPOUND: "O=C1CCCn2c3ccccc3c3ccnc1c32"
  DISCRETE LABEL: "inactive"
- COMPOUND: "O=C1C(c2c(O)[nH]c3ccccc23)=Nc2ccc(Br)cc21"
  DISCRETE LABEL: "inactive"
- COMPOUND: "NC(CO)c1ccccc1 (stereo not given)"
  DISCRETE LABEL: "inactive"
- COMPOUND: "Cc1n[nH]c(=S)n1/N=C/c1ccc(-c2ccc(Cl)cc2)o1"
  DISCRETE LABEL: "inactive"
- COMPOUND: "CCOC(=O)C(C)Sc1nnc(COc2ccccc2OC)n1-c1ccccc1 (stereo not given)"
  DISCRETE LABEL: "inactive"
- COMPOUND: "CCNC(=O)Cc1nc2c(N)ncnc2n1C1OC(CO)C(O)C1O (stereo not given)"
  DISCRETE LABEL: "inactive"
- COMPOUND: "Cc1c(O)c(OC2OC(CO)C(O)C(O)C2O)cc2c1CC[C@@H]1C2(C)C(=O)C[C@]2(C)[C@@H]([C@@](C)(O)C3CCC(C)(C)O3)[C@H](O)C[C@@]12C (stereo not given in full)"
  DISCRETE LABEL: "inactive"
- COMPOUND: "COc1cc(O)c(C(=O)C2Cc3ccccc32)c(OC)c1 (stereo not given)"
  DISCRETE LABEL: "inactive"
- COMPOUND: "CC1(C)N=C(/C(Cl)=[N+](/[O-])C(=O)c2ccc(F)cc2)C(C)(C)N1O"
  DISCRETE LABEL: "inactive"
- COMPOUND: "O=C(N/C(=C\\c1ccc(/C=C(\\NC(=O)c2ccccc2)c2nc3cc(Cl)ccc3[nH]2)cc1)c1nc2cc(Cl)ccc2[nH]1)c1ccccc1"
  DISCRETE LABEL: "inactive"
- COMPOUND: "CC(C)c1ccc(O)c(=O)cc1"
  DISCRETE LABEL: "inactive"
- COMPOUND: "Cc1ccc(-c2nc3c(C(=O)NCCN(C)C)cccc3[nH]2)cc1"
  DISCRETE LABEL: "inactive"
- COMPOUND: "CC1=C(C(=O)N[C@@H](Cc2ccccc2)C(=O)O)N2C(=O)[C@@H](NC(=O)[C@@H](N)CC(C)C)[C@H]2SC1"
  DISCRETE LABEL: "inactive"
- COMPOUND: "O=C1Nc2ccc([N+](=O)[O-])cc2/C1=N/NC(=S)Nc1ccc([N+](=O)[O-])cc1"
  DISCRETE LABEL: "inactive"
- COMPOUND: "C/C(=N\\Nc1nc2cc(C(F)(F)F)ccc2s1)c1ccccn1"
  DISCRETE LABEL: "active"
- COMPOUND: "CCN(CC)C(=O)C/C(C)=N/NC(=O)c1ccncc1"
  DISCRETE LABEL: "inactive"
- COMPOUND: "COC(=O)c1c(-c2ccc(Cl)cc2)cc2c3ccccc3n(C)c2c1C(=O)OC"
  DISCRETE LABEL: "inactive"
